assayExplanation: BSK_3C_uPAR: BioMAP Diversity Plus: 3C Assay for Urokinase-type plasminogen activator receptor (uPAR) Biomarker Activity (AID 2282998)
particulars: BioMAP 3C HUVEC, uPAR biomarker ELISA; actives raise or lower the signal
Method: BSK_3C is a cell-based, multiplexed-readout assay that uses umbilical vein endothelium, a human vascular primary cell, with measurements taken at 24 hours after chemical dosing in a 96-well plate.BSK_3CAR is an assay component measured in the BSK_3C assay. It measures uPAR antibody related to regulation of gene expression using ELISA technology.Data from the assay component BSK_3CAR was analyzed into 1 assay endpoint. […]
Calls of active or inactive are those of the source. How the source made its calls: active means hit-call score of the fitted dose curve at least 0.9, where 1 is the maximum; inactive means score below 0.9.
A correct response names exactly one class from active, inactive

INSERT INTO measurements (structurestring, labelclass) VALUES
  ('Cc1ccc(Nc2ccc(O)c3c2C(=O)c2ccccc2C3=O)cc1', 'inactive'),
  ('Nc1cc([N+](=O)[O-])ccc1Cl', 'inactive');

Now look at this one.
Could you please tell me the result logged for c1ccc2sc(SN(C3CCCCC3)C3CCCCC3)nc2c1 in this assay?
active

----------
Read-out: Macrophage colony-stimulating factor (MCSF), CSF1 (gene 1435)
assayExplanation: BSK_hDFCGF_MCSF: BioMAP Diversity Plus: hDFCGF Assay for Macrophage colony-stimulating factor (MCSF) Biomarker Activity (AID 2283060)
particulars: primary human foreskin fibroblasts; actives raise or lower the signal
The source made the active and inactive calls. How the source made its calls: active means hit-call score of the fitted dose curve at least 0.9, where 1 is the maximum; inactive means score below 0.9.
A correct response names exactly one class from True (active), False (inactive)

Sample answers from the record:
INSERT INTO measurements (compound, labelclass) VALUES
  ('CC1CCC(C(C)CS)CC1S (stereo not drawn)', 'True'),
  ('Cc1ccc(Nc2ccc(O)c3c2C(=O)c2ccccc2C3=O)cc1', 'False');

Could you please tell me the result logged for CCCCCCCCCC=O in this assay?
False

Could you please tell me the result logged for CC(C)(COC(=O)c1ccccc1)COC(=O)c1ccccc1 in this assay?
True

Could you please tell me the result logged for OC[C@H]1O[C@H](O[C@]2(CCl)O[C@H](CCl)[C@@H](O)[C@@H]2O)[C@H](O)[C@@H](O)[C@H]1Cl in this assay?
False

Could you please tell me the result logged for CNC[C@H](O)c1cccc(O)c1 in this assay?
False

Could you please tell me the result logged for C#C[C@]1(O)CC[C@H]2[C@@H]3CCC4=Cc5oncc5C[C@]4(C)[C@H]3CC[C@@]21C in this assay?
False

Could you please tell me the result logged for Cc1ccc(O)c(C(C)(C)C)c1 in this assay?
True

Could you please tell me the result logged for COC(=O)c1ccc(C)cc1 in this assay?
False

Could you please tell me the result logged for CC1COc2ccccc2N1C(=O)C(Cl)Cl (stereo not drawn) in this assay?
False

Could you please tell me the result logged for CC(=O)Nc1ccccc1O in this assay?
False

Could you please tell me the result logged for CCC(=O)OCc1ccccc1 in this assay?
False

Could you please tell me the result logged for CCc1c(C)cc(N)c(CC)c1N in this assay?
False

----------
targetOfAssay: Hypoxia-inducible factor 1-alpha (Homo sapiens)
assayExplanation: ATG_HIF1a_CIS: Attagene CIS-FACTORIAL HepG2 Assay for human Hypoxia Inducible Factor 1 (HIF1A) (AID 2282951)
particulars: HepG2 Attagene cis-factorial HIF1a reporter transcription; actives raise or lower the signal
Active and inactive are the calls of the source. The calls were made as follows: active = hit-call score of the fitted dose curve at least 0.9, where 1 is the maximum; inactive = score below 0.9.
A correct response names exactly one class from active, inactive

Sample answers from the record:
INSERT INTO assay_data (compound, labelclass) VALUES
  ('CC(C)Oc1ccccc1O', 'inactive'),
  ('C=C(C)C(=O)O[C@H]1C[C@@H]2CC[C@@]1(C)C2(C)C', 'active'),
  ('CCCC/C=C\CCCCCCCCCC=O', 'inactive');

Could you please tell me the result logged for COc1ccc(OC)c(OC)c1 in this assay?
inactive

Could you please tell me the result logged for CC(CCO)CCc1ccccc1 (stereo not drawn) in this assay?
inactive

Could you please tell me the result logged for CCCCCC=CCC(=O)OC in this assay?
inactive

Could you please tell me the result logged for CC(C)(C)c1cc(CCC(=O)NN)cc(C(C)(C)C)c1O in this assay?
inactive

Could you please tell me the result logged for CCC(O)CO (stereo not drawn) in this assay?
inactive

Could you please tell me the result logged for O=C1CCc2ccccc2O1 in this assay?
inactive
